B1: LINE1-mini (parent)
chain: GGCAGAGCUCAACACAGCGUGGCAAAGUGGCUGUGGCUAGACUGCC

Variants of: B1
Assay Details: self-cleavage, relative activity (ratio to wild type); higher = more cleavage; in vitro, sequencing; the parent is a self-cleaving ribozyme
Reported Metric: self-cleavage
Hey, just send me the number, nothing else.

Answered cases to consult:
1. A12C C45G | 0.07
2. G40U A41C | 0.2
3. C23A A24G | 0.53
4. G36C A41G | 0.11
5. C18G G21C | 0.62

Data request: self-cleavage for A26U A39G ?
Data returned: 0.22

Data request: self-cleavage for U28A G33C ?
Data returned: 0.03

Data request: self-cleavage for U20A C45U ?
Data returned: 1.4

Data request: self-cleavage for G5C G7C ?
Data returned: 0.08

Data request: self-cleavage for U32G C42G ?
Data returned: 0.14

Data request: self-cleavage for G29U U38A ?
Data returned: 0.4

Sourced from the RNAGym collection of RNA variant scans (doi:10.7554/elife.90254)
